Kindly state Disease level (%) for each of the entries shown.
# System: Septoria tritici isolates containing the G143A in the cytochrome b gene
# test summary: Glass house Trial 3: control of leaf blotch on wheat caused by two Septoria tritici isolates containing G143A
# Assay type: in vivo
# assay conditions: Resistant Septoria tritici isolate 1 (G143A mutation), 200 ppm, % diseased leaf area after about 28 days
Numbers only, in %.

CNC(=O)C(=NOC)C(C)=CCOc1ccn(-c2ccc(F)cc2F)n1 [Compound I-11]
1
Cn1nnn(-c2ccccc2COc2ccn(-c3ccc(Cl)cc3)n2)c1=O [Compound I-211]
1
COC(=O)N(OC)c1ccccc1COc1ccn(-c2ccc(Cl)cc2)n1 [Pyraclostrobin, reference compound]
30

Continue with the next compound.
Query string: Report Disease level (%) for CON=C(C(=O)OC)c1ccccc1CON=C(C)c1cccc(C(F)(F)F)c1 [Trifloxystrobin, reference compound] please.
Result string: 90
